Tested on: Escherichia coli
experiment-description: Antibacterial activity against Escherichia coli ATCC 25922 assessed as growth inhibition incubated for 18 hrs by broth dilution method
Assay type: functional
measurement-setup: ATCC 25922, 18 h
metric: MIC (µM)
Numbers only; they are read as µM.

Recorded results for 2 compounds are shown here.
structure-smiles | MIC [µM]
N#Cc1ccc2c(C(=O)C(=O)NCCCNCCCCNCCCNC(=O)C(=O)c3c[nH]c4cc(C#N)ccc34)c[nH]c2c1.O=C(O)C(F)(F)F.O=C(O)C(F)(F)F | 200
O=C(NCCCNCCCCNCCCNC(=O)C(=O)c1c[nH]c2cc(Br)ccc12)C(=O)c1c[nH]c2cc(Br)ccc12 | 100

Record request: MIC value, item `COC(=O)c1cccc2c(C(=O)C(=O)NCCCNCCCCNCCCNC(=O)C(=O)c3c[nH]c4c(C(=O)OC)cccc34)c[nH]c12.O=C(O)C(F)(F)F.O=C(O)C(F)(F)F`
200

---

We begin with a simple list: items and their reported hemolysis at 1 h, 50 µM.
experiment-description: Hemolytic activity against Sprague-Dawley rat RBC assessed as release of hemoglobin at 50 uM incubated for 1 hr relative to control
Format: ADME, cell-based, Erythrocyte
measurement-setup: red blood cells (erythrocytes), read-out: Activity

structure-smiles | hemolysis at 1 h, 50 µM
O=C(NCCCNCCCCNCCCNC(=O)C(=O)c1c[nH]c2ccc(Cl)cc12)C(=O)c1c[nH]c2ccc(Cl)cc12.O=C(O)C(F)(F)F.O=C(O)C(F)(F)F | 0%
COC(=O)c1cccc2c(C(=O)C(=O)NCCCNCCCCNCCCNC(=O)C(=O)c3c[nH]c4c(C(=O)OC)cccc34)c[nH]c12.O=C(O)C(F)(F)F.O=C(O)C(F)(F)F | 15%
O=C(NCCCNCCCCNCCCNC(=O)C(=O)c1c[nH]c2c(F)cccc12)C(=O)c1c[nH]c2c(F)cccc12.O=C(O)C(F)(F)F.O=C(O)C(F)(F)F | 8.4%
O=C(NCCCNCCCCNCCCNC(=O)C(=O)c1c[nH]c2cc(Cl)ccc12)C(=O)c1c[nH]c2cc(Cl)ccc12.O=C(O)C(F)(F)F.O=C(O)C(F)(F)F | 11.6%
O=C(NCCCNCCCCNCCCNC(=O)C(=O)c1c[nH]c2ccc(Br)cc12)C(=O)c1c[nH]c2ccc(Br)cc12.O=C(O)C(F)(F)F.O=C(O)C(F)(F)F | 34.7%

Turning now to a further record.
Record request: hemolysis at 1 h, 50 µM value, item `O=C(NCCCNCCCCNCCCNC(=O)C(=O)c1c[nH]c2c(Cl)cccc12)C(=O)c1c[nH]c2c(Cl)cccc12.O=C(O)C(F)(F)F.O=C(O)C(F)(F)F`
1.1%

---

Test system: Escherichia coli
experiment-description: Antibacterial activity against Escherichia coli ATCC 25922 assessed as growth inhibition incubated for 18 hrs by broth dilution method
Assay type: functional
measurement-setup: ATCC 25922, 18 h
We begin with a simple list: items and their reported MIC.
Numbers only; they are read as µM.

compound | tested-system | MIC, µM
O=C(NCCCNCCCCNCCCNC(=O)C(=O)c1c[nH]c2ccc(F)cc12)C(=O)c1c[nH]c2ccc(F)cc12.O=C(O)C(F)(F)F.O=C(O)C(F)(F)F | Escherichia coli | 200
CN[C@@H]1[C@H](O[C@H]2[C@H](O[C@H]3[C@H](O)[C@@H](O)[C@H](N=C(N)N)[C@@H](O)[C@@H]3N=C(N)N)O[C@@H](C)[C@]2(O)C=O)O[C@@H](CO)[C@H](O)[C@H]1O [STREPTOMYCIN] | Escherichia coli | 21.5
O=C(NCCCNCCCCNCCCNC(=O)C(=O)c1c[nH]c2c(F)cccc12)C(=O)c1c[nH]c2c(F)cccc12.O=C(O)C(F)(F)F.O=C(O)C(F)(F)F | Escherichia coli | 200
O=C(NCCCNCCCCNCCCNC(=O)C(=O)c1c[nH]c2c(Cl)cccc12)C(=O)c1c[nH]c2c(Cl)cccc12.O=C(O)C(F)(F)F.O=C(O)C(F)(F)F | Escherichia coli | 200
O=C(NCCCNCCCCNCCCNC(=O)C(=O)c1c[nH]c2cc(Br)c(Br)cc12)C(=O)c1c[nH]c2cc(Br)c(Br)cc12.O=C(O)C(F)(F)F.O=C(O)C(F)(F)F | Escherichia coli | 50

Turning now to a further record.
Record request: MIC value, item `O=C(NCCCNCCCCNCCCNC(=O)C(=O)c1c[nH]c2ccc(Br)cc12)C(=O)c1c[nH]c2ccc(Br)cc12.O=C(O)C(F)(F)F.O=C(O)C(F)(F)F`
25
